Hey, just so you know, these numbers are from patent US11986532B2.

molecular target: BCL6 (Homo sapiens, UniProt P41182); construct: endogenous in cells; host or cells: T47D breast cancer epithelial cells; test: Immunofluorescence protocol for high content imaging of BCL6 (degradation) in T47D cells, 3 days compound treatment; assay type: cell-based; conditions: T47D, read-out: Mean Dmax (%)** category
measurement.name: Dmax

As a guide, the following entries are already answered.
molecule: CNC(=O)COc1cc2cc(Nc3nc(N4CCC(CN5CCN(c6ccc7c(c6C)C(=O)N(C6CCC(=O)NC6=O)C7=O)CC5)CC4)ncc3Cl)ccc2n(C(C)C)c1=O (centres unmarked)
assay.system: BCL6 (Homo sapiens, UniProt P41182)
Dmax: 50 to 70%
//
molecule: CNC(=O)COc1cc2cc(Nc3nc(N4CCC(O[C@H]5C[C@H](N6CCN(c7ccc8c(c7)CN([C@H]7CCC(=O)NC7=O)C8=O)C(C)(C)C6)C5)CC4)ncc3Cl)ccc2n(C(C)C)c1=O
assay.system: BCL6 (Homo sapiens, UniProt P41182)
Dmax: ≥ 70%
//
molecule: CNC(=O)COc1cc2cc(Nc3nc(N4CCC(OC5CCC6(CC5)CN(c5c(OC)ccc7c5CN(C5CCC(=O)NC5=O)C7=O)C6)CC4)ncc3Cl)ccc2n(C(C)C)c1=O (centres unmarked)
assay.system: BCL6 (Homo sapiens, UniProt P41182)
Dmax: 50 to 70%
//
molecule: CNC(=O)COc1cc2cc(Nc3nc(N4CCC(OC5CCC6(CC5)CN(c5ccc7c(c5Cl)CN(C5CCC(=O)NC5=O)C7=O)C6)CC4)ncc3Cl)ccc2n(C(C)C)c1=O (centres unmarked)
assay.system: BCL6 (Homo sapiens, UniProt P41182)
Dmax: ≥ 70%

Proceed to the following item.
For reference, reported Dmax for CNC(=O)COc1cc2cc(Nc3nc(N4CCC(CN5CCN(c6ccc7c(c6)C(=O)N(C6CCC(=O)NC6=O)C7=O)CC5)CC4)ncc3Cl)ccc2n(C(C)C)c1=O (centres unmarked) stands at 50 to 70%

---

biological target: BCL6 (Homo sapiens, UniProt P41182); construct: endogenous in cells; host or cells: T47D breast cancer epithelial cells; experiment: Immunofluorescence protocol for high content imaging of BCL6 (degradation) in T47D cells, 3 days compound treatment; assay type: cell-based; conditions: T47D cells, 3 days compound treatment, read-out: Mean Dmax (%)** category
measurement.name: Dmax

Examples from the recorded data:
compound: CNC(=O)COc1cc2cc(Nc3nc(N4CCN(CC5CCN(c6ccc7c(c6F)CN(C6CCC(=O)NC6=O)C7=O)CC5)CC4)ncc3Cl)ccc2n(C(C)C)c1=O (stereo not drawn)
measurement.name: Dmax
value.observed: < 50%
--
compound: CNC(=O)COc1cc2cc(Nc3nc(N4CCN(C(=O)C5CCC6(CCN(c7ccc8c(c7)CN(C7CCC(=O)NC7=O)C8=O)C6)C5)CC4)ncc3Cl)ccc2n(C(C)C)c1=O (stereo not drawn)
measurement.name: Dmax
value.observed: < 50%

Attention now shifts to the item below.
Measured Dmax of CNC(=O)COc1cc2cc(Nc3nc(N4CCC(OC5CCC6(CC5)CN(c5ccc7c(c5)C(=O)N(C5CCC(=O)NC5=O)C7)C6)CC4)ncc3Cl)ccc2n(C(C)C)c1=O (stereo not drawn) : 50 to 70%

---

target: BCL6 (Homo sapiens); construct: endogenous in cells; host or cells: T47D breast cancer epithelial cells; assay: Immunofluorescence protocol for high content imaging of BCL6 (degradation) in T47D cells, 3 days compound treatment; assay type: cell-based; conditions: read-out: Mean DC50 (nM)* category
measurement.name: DC50

Provide the reported DC50 of each entry below, same order.
1. CNC(=O)COc1cc2cc(Nc3nc(N4CCC(N5CCC56CN(C5CCN(c7ccc8c(c7)C(=O)N(C7CCC(=O)NC7=O)C8=O)C5)C6)CC4)ncc3Cl)ccc2n(C(C)C)c1=O (stereo not shown) [Compound 221]
2. CNC(=O)COc1cc2cc(Nc3nc(N4CCC(O[C@H]5C[C@H](N6CCN(c7cc(F)c8c(c7F)CN(C7CCC(=O)NC7=O)C8=O)CC6)C5)CC4)ncc3Cl)ccc2n(C(C)C)c1=O (stereo partly shown) [Compound 273]
3. CNC(=O)COc1cc2cc(Nc3nc(N4CCC(O[C@H]5C[C@H](N6CCC(c7ccc8c(c7)CN(C7CCC(=O)NC7=O)C8=O)C(F)(F)C6)C5)CC4)ncc3Cl)ccc2n(C(C)C)c1=O (stereo partly shown) [Compound 218]
4. CNC(=O)COc1cc2cc(Nc3nc(N4CCC(O[C@H]5C[C@H](N6CCCC7(CCN(c8ccc9c(c8F)CN(C8CCC(=O)NC8=O)C9=O)C7)C6)C5)CC4)ncc3Cl)ccc2n(C(C)C)c1=O (stereo partly shown) [Compound 401]

1: < 10 nM; 2: < 10 nM; 3: < 10 nM; 4: < 10 nM

I'm hoping you can list DC50 for every compound here, please.
1. CNC(=O)COc1cc2cc(Nc3nc(N4CCC(CN5CCC6(CC5)CCN6c5cccc6c5C(=O)N(C5CCC(=O)NC5=O)C6=O)CC4)ncc3Cl)ccc2n(C(C)C)c1=O (stereo not shown) [Compound 333]
2. CNC(=O)COc1cc2cc(Nc3nc(N4CCC(CN5CC(N6CCC(c7ccc8c(c7)CN(C7CCC(=O)NC7=O)C8=O)C(F)C6)C5)CC4)ncc3Cl)ccc2n(C(C)C)c1=O (stereo not shown) [Compound 217]
3. CC(C)n1c(=O)c(OCC(=O)O)cc2cc(Nc3nc(N4CCC(O[C@H]5C[C@H](N6CCC(c7ccc8c(c7F)CN(C7CCC(=O)NC7=O)C8=O)CC6)C5)CC4)ncc3Cl)ccc21 (stereo partly shown) [Compound 264]
4. CNC(=O)COc1cc2cc(Nc3nc(N4CCC(F)(CN5CCC6(CC5)CN(c5ccc7c(c5)CN(C5CCC(=O)NC5=O)C7=O)C6(C)C)CC4)ncc3Cl)ccc2n(C(C)C)c1=O (stereo not shown) [Compound 382]
5. CNC(=O)COc1cc2cc(Nc3nc(N4CCC(O[C@H]5C[C@H](N6CC7(CCN(c8ccc9c(c8)C(=O)N(C8CCC(=O)NC8=O)C9=O)C7)C6)C5)CC4)ncc3Cl)ccc2n(C(C)C)c1=O (stereo partly shown) [Compound 350]

1. < 10 nM
2. < 10 nM
3. < 10 nM
4. < 10 nM
5. < 10 nM

The compound listed as CNC(=O)COc1cc2cc(Nc3nc(N4CCN(CC5CCC6(CC5)CN(c5cc(F)cc7c5CN(C5CCC(=O)NC5=O)C7=O)C6)CC4)ncc3Cl)ccc2n(C(C)C)c1=O (stereo not shown) [Compound 315] shows DC50 equal to < 10 nM
